Experiment: Part A (SAD): plasma PK of Formula (IIa) and its metabolites after a single oral dose of Formula (IIa), fed or fasted
Type: in vivo, human
Settings: human, in vivo, po, 400 mg, single oral 400 mg Formula (IIa), fasted, plasma, N=1; read-out: AUC0-24

[
  {
    "compound": "CO[C@H]1C(OP(=O)(OC[C@H]2O[C@@H](n3cnc4c(N)ncnc43)CC2O)SCOC(=O)OC(C)C)[C@@H](CO)O[C@H]1n1ccc(=O)[nH]c1=O (stereo partly shown)",
    "AUC(0-t) / ng·h/mL": 1.37
  }
]

----------
Test: Part A (SAD): plasma PK of Formula (IIa) and its metabolites after a single oral dose of Formula (IIa), fed or fasted
Type: in vivo, human
Details: human, in vivo; two fed subjects (400 mg and 800 mg dose cohorts); read-out: half-life (terminal phase), range
measured metric: half-life

[
  {
    "compound": "CO[C@H]1C(OP(=O)(OC[C@H]2O[C@@H](n3cnc4c(N)ncnc43)CC2O)SCOC(=O)OC(C)C)[C@@H](CO)O[C@H]1n1ccc(=O)[nH]c1=O (stereo partly shown)",
    "recorded result": "1.16 to 1.42 h"
  }
]

----------
Test: Part A (SAD): plasma PK of Formula (IIa) and its metabolites after a single oral dose of Formula (IIa), fed or fasted
Format: in vivo, human
Settings: human, in vivo, po, 400 mg, single oral 400 mg Formula (IIa), fasted, plasma, N=1

[
  {
    "molecule": "CO[C@H]1C(OP(=O)(OC[C@H]2O[C@@H](n3cnc4c(N)ncnc43)CC2O)SCOC(=O)OC(C)C)[C@@H](CO)O[C@H]1n1ccc(=O)[nH]c1=O (stereo partly shown) [Formula (IIa)]",
    "Cmax, ng/mL": 1.16
  }
]

----------
Assay: Part A (SAD): plasma PK of Formula (IIa) and its metabolites after a single oral dose of Formula (IIa), fed or fasted
Type: in vivo, human
Conditions: human, in vivo, po, single oral Formula (IIa), subjects dosed under fed conditions; read-out: Individual Tmax range
measured metric: Tmax

[
  {
    "compound": "CO[C@H]1C(OP(=O)(OC[C@H]2O[C@@H](n3cnc4c(N)ncnc43)CC2O)SCOC(=O)OC(C)C)[C@@H](CO)O[C@H]1n1ccc(=O)[nH]c1=O (stereo partly shown)",
    "recorded result": "1.5 to 2 h"
  }
]

----------
Experiment: Part B (MAD): plasma PK of Formula (IIa) and its metabolites after once-daily oral Formula (IIa) for 7 days, fasted
Format: in vivo, human
Details: human, in vivo, Day 7, 200-900 mg Formula (IIa) QD; read-out: mean Cmax range across dose levels
Experimental: Part B was a blinded, randomized, placebo-controlled MAD study consisting of four cohorts of eight subjects randomized 6:2 to receive Formula (IIa) or placebo. […] The starting dose was determined by the SRC based on review of all safety and any available PK/PD data from Part A. All subjects were dosed in the fasted state with Formula (IIa) daily, from Day 1 until Day 8. […] All plasma PK calculations were performed using actual time points calculated relative to the time of last drug administration. […]

[
  {
    "compound": "CO[C@H]1C(OP(=O)(OC[C@H]2O[C@@H](n3cnc4c(N)ncnc43)CC2O)SCOC(=O)OC(C)C)[C@@H](CO)O[C@H]1n1ccc(=O)[nH]c1=O (stereo partly shown) [Formula (IIa)]",
    "Cmax": "0.885 to 6.66 ng/mL"
  }
]
